- Test system: Aspergillus niger
- assay_remarks: Extended time kill study, Example 34 (0 to 24 h)
- Assay type: cell-based
- experimental_setup: 1 × MIC, 24 h
Structures can show the parent of a compound that is named as a salt.
Entries and their measured Viable counts in Log10 CFU/mL follow.
Your answer is read as Log10 CFU/mL, so omit the unit and give the number.

Consider the following illustrative entries.
Exercise: Tell me reported Viable counts in Log10 CFU/mL for CCCCCCCCCCCCOC(=O)C(C)NCCO.Cl (centres unmarked) , tested with Aspergillus niger.
Key: 4.48

Exercise: # repeat for CCCCCCCCCCCCOC(=O)C(C)NCCN(CC)CC.Cl (centres unmarked)
Key: 4

Exercise: And the next one, CCCCCCCCCCCCOC(=O)C(C)N(C)C (centres unmarked) [Nex-05, hydrochloride] ?
Key: 3.30

Exercise: How about CCCCCCCCCCCCOC(=O)C(C)NC(C)C.Cl (centres unmarked) ?
Key: 3.81

Continuing:
Exercise: Request: Viable counts in Log10 CFU/mL, test system Aspergillus niger, entry CCCCCCCCCCCCOC(=O)C(C)NC.Cl (centres unmarked)
Key: 3.78
